Each recorded value in this set is attributed to the supplement of paper PMC5662764.

System: MCF10A
TEST: normalised growth rate inhibition (GR value) relative to DMSO control (GR (1 = untreated growth, 0 = cytostasis, <0 = cytotoxic)); higher = less growth inhibition
EXPERIMENTAL_CONTEXT: 3.33 µM; 72 h
Property: normalised growth rate inhibition; scope: individual compounds
QUANTITY_NAME: normalised growth rate inhibition

CNC(=O)Nc1ccc(-c2nc(N3CC4CCC(C3)O4)c3cnn(C4CCC5(CC4)OCCO5)c3n2)cc1
0.151
CC[C@@H]1C(=O)N(C)c2cnc(Nc3ccc(C(=O)NC4CCN(C)CC4)cc3OC)nc2N1C1CCCC1
-0.0132
NC(=O)Nc1cc(-c2cccc(F)c2)sc1C(=O)N[C@H]1CCCNC1
0.188
COc1cc2c(Oc3ccc(NC(=O)C4(C(=O)Nc5ccc(F)cc5)CC4)cc3F)ccnc2cc1OCCCN1CCOCC1
0.154
Cc1nc(Nc2ncc(C(=O)Nc3c(C)cccc3Cl)s2)cc(N2CCN(CCO)CC2)n1
-0.0296
CCc1cc(Nc2nccc(-c3c(-c4ccc(OC)c(C(=O)Nc5c(F)cccc5F)c4)nc4ccccn34)n2)c(OC)cc1N1CCC(N2CCN(S(C)(=O)=O)CC2)CC1
0.621
COc1cc2ncnc(-n3nc(-c4ccccn4)nc3N)c2cc1OC
0.972
CC1=C(CO)C(=O)O[C@@H]([C@@H](C)[C@H]2CC[C@H]3[C@@H]4C[C@H]5O[C@]56[C@@H](O)C=CC(=O)[C@]6(C)[C@H]4CC[C@]23C)C1
-0.193
Oc1cccc(-c2nc(N3CCOCC3)c3oc4ncccc4c3n2)c1
0.125
COc1cc(N2CCC(C(N)=O)CC2)ccc1Nc1nc(N)c(Cl)c(Nc2ccccc2S(=O)(=O)C(C)C)n1
0.627
C=CC(=O)Nc1cc2c(Nc3ccc(F)c(Cl)c3)ncnc2cc1OCCCN1CCOCC1
0.105
CC(=O)Nc1nc(C)c(-c2ccc(Cl)c(S(=O)(=O)NCCO)c2)s1
0.831
COc1cc(N2CCC(N3CCN(C)CC3)CC2)ccc1Nc1ncc(Cl)c(Nc2ccccc2S(=O)(=O)C(C)C)n1
0.429
Cc1ccc2nc(NCCN)c3ncc(C)n3c2c1
0.957
Cc1ccc(NC(=O)c2ccc(CN3CCN(C)CC3)cc2)cc1Nc1nccc(-c2cccnc2)n1
1.01
CNC(=O)c1cc(Oc2ccc(NC(=O)Nc3ccc(Cl)c(C(F)(F)F)c3)cc2)ccn1
0.95

----------
Property: normalised growth rate inhibition; scope: individual compounds
Test system: MCF10A
TEST: normalised growth rate inhibition (GR value) relative to DMSO control (GR (1 = untreated growth, 0 = cytostasis, <0 = cytotoxic)); higher = less growth inhibition
EXPERIMENTAL_CONTEXT: 0.04 µM; 72 h
QUANTITY_NAME: normalised growth rate inhibition

CNC(=O)c1ccc(Nc2cc(Nc3ccccc3S(=O)(=O)C(C)C)c3cc[nH]c3n2)nc1
0.968
Nc1cc(C(F)(F)F)c(-c2cc(N3CCOCC3)nc(N3CCOCC3)n2)cn1
1
CN1CCN(c2ccc3nc(-c4c(N)c5c(F)cccc5[nH]c4=O)[nH]c3c2)CC1
0.962
COCC(=O)NC/C=C/c1ccc2ncnc(Nc3ccc(Oc4ccc(C)nc4)c(C)c3)c2c1
1.01
N#CCNC(=O)c1ccc(-c2ccnc(Nc3ccc(N4CCOCC4)cc3)n2)cc1
0.959
CNC(=O)Nc1ccc(-c2nc(N3CC4CCC(C3)O4)c3cnn(C4CCC5(CC4)OCCO5)c3n2)cc1
0.506

----------
Test system: MCF7
TEST: normalised growth rate inhibition (GR value) relative to DMSO control (GR (1 = untreated growth, 0 = cytostasis, <0 = cytotoxic)); higher = less growth inhibition
EXPERIMENTAL_CONTEXT: 1.11 µM; 72 h
Property: normalised growth rate inhibition; scope: individual compounds
QUANTITY_NAME: normalised growth rate inhibition

C[C@@H](Oc1cc(-c2cnn(C3CCNCC3)c2)cnc1N)c1c(Cl)ccc(F)c1Cl [crizotinib]
0.351
C[C@]1(O)C[C@@H](c2nc(-c3ccc4ccc(-c5ccccc5)nc4c3)c3c(N)nccn32)C1 [linsitinib]
0.449
CC(=O)Nc1cccc(-n2c(=O)n(C3CC3)c(=O)c3c(Nc4ccc(I)cc4F)n(C)c(=O)c(C)c32)c1 [trametinib]
0.387
COC1=C2C[C@@H](C)C[C@H](OC)[C@H](O)[C@@H](C)/C=C(\C)[C@H](OC(N)=O)[C@@H](OC)/C=C\C=C(/C)C(=O)NC(=CC1=O)C2=O [geldanamycin]
0.0592
C=CC(=O)N1CCc2ccc(-n3c(=O)ccc4cnc5ccc(-c6cnn(C)c6)cc5c43)cc21 [QL-XII-47]
-0.0941
COc1cc(C(=O)N2CCC(N3CCN(C)CC3)CC2)ccc1Nc1ncc2c(n1)N(C)c1ccccc1C(=O)N2C [XMD-1150]
0.365
COc1cc2ncnc(-n3nc(-c4ccccn4)nc3N)c2cc1OC
1.01
O=C(Nc1cccc(Nc2ncc(Br)c(NCCc3cnc[nH]3)n2)c1)N1CCCC1 [BX-912]
0.459
NC(=O)Nc1cc(-c2cccc(F)c2)sc1C(=O)N[C@H]1CCCNC1 [AZD-7762]
-0.000407
CC(C)CC(=O)Nc1n[nH]c2c1CN(C(=O)C1CCN(C)CC1)C2(C)C
-0.0125
COc1cc(C(=O)NC2CCN(C)CC2)ccc1Nc1ncc2c(n1)N(C1CCCC1)CCC(=O)N2C(C)C
0.807
Cc1cnc(Nc2ccc(OCCN3CCCC3)cc2)nc1Nc1cccc(S(=O)(=O)NC(C)(C)C)c1
0.545

----------
Tested on: MCF10A
TEST: normalised growth rate inhibition (GR value) relative to DMSO control (GR (1 = untreated growth, 0 = cytostasis, <0 = cytotoxic)); higher = less growth inhibition
EXPERIMENTAL_CONTEXT: 0.04 µM; 72 h
Property: normalised growth rate inhibition; scope: individual compounds
QUANTITY_NAME: normalised growth rate inhibition

Cc1ccc2nc(NCCN)c3ncc(C)n3c2c1
0.996
Cc1[nH]c(/C=C2\C(=O)Nc3ccc(S(=O)(=O)N(C)c4cccc(Cl)c4)cc32)c(C)c1C(=O)N1CCN(C)CC1
1
NC1(c2ccc(-c3nc4ccn5c(=O)[nH]nc5c4cc3-c3ccccc3)cc2)CCC1
0.99
